Source of measurements: patent US20240158446A1

tested-target: GDP-bound KRAS wild-type protein (Homo sapiens, UniProt P01116)
Sequence (P01116 whole entry): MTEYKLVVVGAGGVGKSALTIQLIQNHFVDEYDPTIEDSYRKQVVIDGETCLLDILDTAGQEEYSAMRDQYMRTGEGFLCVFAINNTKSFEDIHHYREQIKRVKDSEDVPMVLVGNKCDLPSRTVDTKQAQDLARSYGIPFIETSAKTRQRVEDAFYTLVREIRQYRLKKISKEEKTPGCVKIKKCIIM
protocol-details: Binding to KRAS by surface plasmon resonance (SPR), Single Cycle Kinetics
assay-context: SPR, Single Cycle Kinetics, GDP-bound KRAS wild-type protein; read-out: KRAS KD
Label condition met when Kd is strictly below 80 pM; at or above that, label condition not met.

input: Please indicate whether the reported Kd of CCO[C@@H]1C[C@H]2C(=O)NC3(CCC3)C(=O)N(C)[C@@H](C3CCCC3)C(=O)N(C)[C@H](C(=O)N(C)C)CC(=O)N(C)[C@@H](CC)C(=O)N[C@@H]([C@@H](C)CC)C(=O)N(C)CC(=O)N(C)[C@H]3CCCCN(C3=O)[C@@H](Cc3ccc(C(F)(F)F)cc3)C(=O)N(C)CC(=O)N[C@@H](CCc3ccc(Cl)c(Cl)c3)C(=O)N2C1 [PP0987] is strictly below 80 pM.
output: condition met

input: Please indicate whether the reported Kd of CCO[C@@H]1C[C@H]2C(=O)NC3(CCC3)C(=O)N(C)[C@@H](C(C)C)C(=O)N(C)[C@H](C(=O)N(C)C)CC(=O)N(C)[C@@H](CC)C(=O)N[C@@H]([C@@H](C)CC)C(=O)N(C)CC(=O)N(C)[C@H]3C/C=C\CCN(C3=O)[C@@H](Cc3ccc(C(F)(F)F)cc3)C(=O)N(C)CC(=O)N[C@@H](CCc3cc(F)c(C(F)(F)F)c(F)c3)C(=O)N2C1 [PP1088] is strictly below 80 pM.
output: condition not met

input: Please indicate whether the reported Kd of CCCN(C)C(=O)[C@@H]1CC(=O)N(C)[C@@H](CC(F)(F)F)C(=O)N[C@@H]([C@@H](C)CC)C(=O)N(C)CC(=O)N(C)[C@H]2C/C=C\CCN(C2=O)[C@@H](Cc2ccc(C(F)(F)F)cc2)C(=O)N(C)CC(=O)N[C@@H](CCc2cc(F)c(C(F)(F)F)c(F)c2)C(=O)N2C[C@H](OCC)C[C@H]2C(=O)NC2(CCC2)C(=O)N(C)[C@@H](C2CCCC2)C(=O)N1C [PP1702] is strictly below 80 pM.
output: condition not met

input: Please indicate whether the reported Kd of CC[C@H](C)[C@@H]1NC(=O)[C@H](CC(C)C)N(C)C(=O)C[C@@H](C(=O)N(C)C)N(C)C(=O)[C@H](C2CCCC2)N(C)C(=O)C2(CCCC2)NC(=O)[C@@H]2C[C@H](C)CN2C(=O)[C@H](CCc2cc(F)c(C(F)(F)F)c(F)c2)NC(=O)CN(C)C(=O)[C@H](Cc2ccc(C(F)(F)F)cc2)N2CC/C=C\C[C@@H](C2=O)N(C)C(=O)CN(C)C1=O [PP2268] is strictly below 80 pM.
output: condition not met

input: Please indicate whether the reported Kd of CC[C@H](C)[C@@H]1NC(=O)[C@H](CC(C)C)N(C)C(=O)C[C@@H](C(=O)N(C)C)N(C)C(=O)[C@H](C2CCCC2)N(C)C(=O)C2(CC(C)(C)C2)NC(=O)CN(C)C(=O)[C@H](CCc2cc(F)c(C(F)(F)F)c(F)c2)NC(=O)CN(C)C(=O)[C@H](Cc2ccc(C(F)(F)F)cc2)N2CC/C=C\C[C@@H](C2=O)N(C)C(=O)CN(C)C1=O [PP1776] is strictly below 80 pM.
output: condition not met

input: Please indicate whether the reported Kd of CCO[C@@H]1C[C@H]2C(=O)NC3(CC(C)(C)C3)C(=O)N(C)[C@@H](C3CCCC3)C(=O)N(C)[C@H](C(=O)N(C)CC)CC(=O)N(C)[C@@H](CC)C(=O)N[C@@H]([C@@H](C)CC)C(=O)N(C)CC(=O)N(C)[C@H]3C/C=C\CCN(C3=O)[C@@H](Cc3ccc(C(F)(F)F)cc3)C(=O)N(C)CC(=O)N[C@@H](CCc3ccc(C(F)(F)F)c(OC)c3)C(=O)N2C1 [PP1653] is strictly below 80 pM.
output: condition not met

----------
tested-target: GDP-bound KRAS wild-type protein (Homo sapiens, UniProt P01116)
protocol-details: Binding to KRAS by surface plasmon resonance (SPR), Single Cycle Kinetics
assay-context: SPR, Single Cycle Kinetics, GDP-bound KRAS wild-type protein; read-out: KRAS KD
readout-type: Kd (nM)
Reply with just the number (in nM).

Briefly, Kd measured for CCO[C@@H]1C[C@H]2C(=O)NC3(CC(C)(C)C3)C(=O)N(C)[C@@H](C(CC)CC)C(=O)N(C)[C@H](C(=O)N(C)C)CC(=O)N(C)[C@@H](CC3CCC3)C(=O)N[C@@H]([C@@H](C)CC)C(=O)N(C)CC(=O)N(C)[C@H]3C/C=C\CCN(C3=O)[C@@H](Cc3ccc(C)cc3)C(=O)N(C)CC(=O)N[C@@H](CCc3ccc(C(F)(F)F)c(OC)c3)C(=O)N2C1 [PP2172] : 0.51

Briefly, Kd measured for CCO[C@@H]1C[C@H]2C(=O)NC3(CC(C)(C)C3)C(=O)N(C)[C@@H](C3CCCC3)C(=O)N(C)[C@H](C(=O)N(C)CC)CC(=O)N(C)[C@@H](C3CC3)C(=O)N[C@@H]([C@@H](C)CC)C(=O)N(C)CC(=O)N(C)[C@H]3C/C=C\CCN(C3=O)[C@@H](Cc3ccc(C(F)(F)F)cc3)C(=O)N(C)CC(=O)N[C@@H](CCc3ccc(C(F)(F)F)c(OC)c3)C(=O)N2C1 [PP1981] : 0.1

Briefly, Kd measured for CCCN(C)C(=O)[C@@H]1CC(=O)N(C)[C@@H](COC)C(=O)N[C@@H]([C@@H](C)CC)C(=O)N(C)CC(=O)N(C)[C@H]2C/C=C\CCN(C2=O)[C@@H](Cc2ccc(C(F)(F)F)cc2)C(=O)N(C)CC(=O)N[C@@H](CCc2ccc(C(F)(F)F)c(OC)c2)C(=O)N2C[C@H](OCC)C[C@H]2C(=O)NC2(CC(C)(C)C2)C(=O)N(C)[C@@H](C2CCCC2)C(=O)N1C [PP1656] : 0.065

----------
tested-target: GDP-bound KRAS wild-type protein (Homo sapiens, UniProt P01116)
protocol-details: Binding to KRAS by surface plasmon resonance (SPR), Single Cycle Kinetics
assay-context: SPR, Single Cycle Kinetics, GDP-bound KRAS wild-type protein; read-out: KRAS KD
readout-type: pKd
Hey, just a heads up that pKd is the negative log base 10 of the concentration in molar.

Briefly, pKd measured for CCC[C@H]1C(=O)N[C@@H]([C@@H](C)CC)C(=O)N(C)CC(=O)N(C)[C@H]2C/C=C\CCN(C2=O)[C@@H](CC2CCC(F)(F)CC2)C(=O)N(C)CC(=O)N[C@@H](CCc2ccc(C(F)(F)F)c(OC)c2)C(=O)N2C[C@@H](C)C[C@H]2C(=O)NC2(CC(C)(C)C2)C(=O)N(C)[C@@H](C(CC)CC)C(=O)N(C)[C@H](C(=O)N(C)C)CC(=O)N1C [PP2497] : 8.82

Briefly, pKd measured for CCO[C@@H]1C[C@H]2C(=O)N(C)C3(CCC3)C(=O)N(C)[C@@H](C3CCCC3)C(=O)N(C)[C@H](C(=O)N(C)C)CC(=O)N(C)[C@@H](CC)C(=O)N[C@@H]([C@@H](C)CC)C(=O)N(C)CC(=O)N(C)[C@H]3C/C=C\CCN(C3=O)[C@@H](Cc3ccc(C)cc3)C(=O)N(C)CC(=O)N[C@@H](CCc3cc(F)c(C(F)(F)F)c(F)c3)C(=O)N2C1 [PP1781] : 10.62

Briefly, pKd measured for CCO[C@@H]1C[C@H]2C(=O)N(C)C3(CCC3)C(=O)N(C)[C@@H](C(CC)CC)C(=O)N(C)[C@H](C(=O)N(C)C)CC(=O)N(C)[C@@H](COC)C(=O)N[C@@H]([C@@H](C)CC)C(=O)N(C3CC3)CC(=O)N(C)[C@H]3C/C=C\CCN(C3=O)[C@@H](CC3CCCCC3)C(=O)N(C)CC(=O)N[C@@H](CCc3ccc(C(F)(F)F)c(OC)c3)C(=O)N2C1 [PP2339] : 8.59

----------
What pKd was measured for each of the following?
tested-target: UniProt P01116
protocol-details: Binding to KRAS by surface plasmon resonance (SPR), Single Cycle Kinetics
assay-context: SPR Single Cycle Kinetics, GDP-bound KRAS wild-type protein, 1:1 binding model; read-out: KRAS KD
Where a SMILES comes first, the peptide text is derived from it. Bridges are numbered along the chain shown (N, C = ends). [ ]: non-standard residue; d: D form. The star is where a group is joined. hPhe(3-Cl-4-CF3) = N[C@@H](CCc1ccc(C(F)(F)F)c(Cl)c1)C(=O)O; NPrPhe(4-CF3) = CCCN[C@@H](Cc1ccc(C(F)(F)F)cc1)C(=O)O; NMeGly(cPent) = CN[C@H](C(=O)O)C1CCCC1; Hyp = O=C(O)[C@@H]1C[C@@H](O)CN1; NMeL = CN[C@@H](CC(C)C)C(=O)O; Morpholide = C1CN(*)CCO1; Ac5c = NC1(C(=O)O)CCCC1; Sar = CNCC(=O)O
Hey, just a heads up that pKd is the negative log base 10 of the concentration in molar.

Briefly, pKd measured for CCCN1C(=O)CN(C)C(=O)CNC(=O)[C@H]([C@@H](C)CC)NC(=O)[C@H](CC(C)C)N(C)C(=O)C[C@@H](C(=O)N2CCOCC2)NC(=O)[C@H](C2CCCC2)N(C)C(=O)C2(CCCC2)NC(=O)[C@@H]2C[C@@H](OCC)CN2C(=O)[C@H](CCc2ccc(C(F)(F)F)c(Cl)c2)NC(=O)CN(C)C(=O)[C@@H]1Cc1ccc(C(F)(F)F)cc1 [PP0329] ([NMeL]IG[Sar][NPrPhe(4-CF3)][Sar][hPhe(3-Cl-4-CF3)][Hyp](Et)[Ac5c][NMeGly(cPent)]D-Morpholide; lactam N-11) : 9.13

Briefly, pKd measured for `CCC(CC)[C@@H]1NC(=O)[C@H](CC(C)C)N(C)C(=O)C[C@@H](C(=O)N2CCOCC2)N(C)C(=O)[C@H](C2CCCC2)N(C)C(=O)C2(CCCC2)NC(=O)[C@@H]2CCCN2C(=O)[C@H](CCc2cc(F)c(C(F)(F)F)c(F)c2)NC(=O)CN(C)C(=O)[C@H](Cc2ccc(C(F)(F)F)cc2)N2CCCCC[C@@H](C2=O)N(C)C(=O)CN(C)C1=O` : 7.92
